# target-or-test-system: viral kinase pUL-97 (Human cytomegalovirus)
# Construct: The pUL-97 gene was cloned into a baculovirus vector; GST (glutathione S-transferase) (N); made in house; host or cells: Sf9 insect cells, baculovirus
# method-notes: UL97 kinase assay on Immobilon plate
# Assay type: biochemical
# measurement-setup: inhibition of UL 97 kinase activity; class by IC50 / % inhibition at 10 μM or 100 μM; read-out: Activity Class [A, B, C]
pIC50: −log10 of the molar value.
parameter-measured: pIC50

CC(C)(C)c1ccc(-c2cncc(N3CCN(c4cccc(C(F)(F)F)c4)CC3)n2)cc1 [compound 253]: 4.00 to 5.00
CN(C)c1ccc(-c2cncc(N3CCN(c4ccc(F)cc4F)CC3)n2)cc1 [compound 208]: 5.00 to 6.00
Fc1ccccc1N1CCN(c2cncc(-c3ccc(C(F)(F)F)cc3)n2)CC1 [compound 197]: 5.00 to 6.00
Fc1cccc(-c2cncc(N3CCN(c4ccccc4F)CC3)n2)c1 [compound 198]: 4.00 to 5.00
Fc1ccccc1N1CCN(c2cncc(-c3cccc4ccccc34)n2)CC1 [compound 249]: 4.00 to 5.00
N#Cc1ccc(-c2cncc(N3CCN(c4ccccn4)CC3)n2)cc1 [compound 303]: 5.00 to 6.00

// input: 6 molecules below; output: pIC50 for each
1. CN(C)c1ccc(-c2cncc(N3CCN(c4cnccn4)CC3)n2)cc1 [compound 343]
2. c1ccc(C2CCN(c3cncc(-c4ccsc4)n3)CC2)cc1 [compound 336]
3. COc1ccc(N2CCN(c3cncc(-c4csc5ccccc45)n3)CC2)cc1OC [compound 227]
4. Fc1ccc(N2CCN(c3cncc(-c4ccoc4)n3)CC2)c(F)c1 [compound 201]
5. Cc1ccc(-c2cncc(N3CCN(c4cccc(Cl)c4)CC3)n2)cc1 [compound 237]
6. Cc1cccc(N2CCN(c3cncc(-c4ccoc4)n3)CC2)c1C [compound 346]

Result:
1: 5.00 to 6.00; 2: 5.00 to 6.00; 3: 5.00 to 6.00; 4: 5.00 to 6.00; 5: 4.00 to 5.00; 6: 4.00 to 5.00

----------
# target-or-test-system: viral kinase pUL-97 (Human cytomegalovirus, UniProt P16788)
# Construct: The pUL-97 gene was cloned into a baculovirus vector; GST (glutathione S-transferase) (N); made in house; host or cells: Sf9 insect cells, baculovirus
# Sequence (P16788 whole entry): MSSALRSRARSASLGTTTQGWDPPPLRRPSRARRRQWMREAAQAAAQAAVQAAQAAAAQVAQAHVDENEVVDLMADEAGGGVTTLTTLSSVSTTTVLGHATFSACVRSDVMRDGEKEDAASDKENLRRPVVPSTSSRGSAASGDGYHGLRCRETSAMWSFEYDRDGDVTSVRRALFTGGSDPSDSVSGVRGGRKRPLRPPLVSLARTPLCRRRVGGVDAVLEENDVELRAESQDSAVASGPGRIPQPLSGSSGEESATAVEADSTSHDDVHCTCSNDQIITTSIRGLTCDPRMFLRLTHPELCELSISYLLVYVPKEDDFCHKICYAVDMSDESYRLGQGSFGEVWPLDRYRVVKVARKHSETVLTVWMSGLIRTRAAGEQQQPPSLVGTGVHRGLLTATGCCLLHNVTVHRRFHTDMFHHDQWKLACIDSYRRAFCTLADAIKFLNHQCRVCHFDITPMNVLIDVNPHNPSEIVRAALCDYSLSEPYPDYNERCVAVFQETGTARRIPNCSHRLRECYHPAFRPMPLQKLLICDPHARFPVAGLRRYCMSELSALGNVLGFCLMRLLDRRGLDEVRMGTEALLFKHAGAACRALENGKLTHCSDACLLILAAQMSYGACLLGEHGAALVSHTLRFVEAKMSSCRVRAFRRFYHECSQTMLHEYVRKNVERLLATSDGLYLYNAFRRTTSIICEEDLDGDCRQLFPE
# method-notes: UL97 kinase assay on Immobilon plate
# Type: biochemical
# measurement-setup: inhibition of UL 97 kinase activity; class by IC50 / % inhibition at 10 or 100 μM; read-out: Activity Class [A, B, C]
parameter-measured: IC50

Sample records with IC50:
COc1ccc2cc(-c3cncc(N4CCN(c5ccc(OC)c(OC)c5)CC4)n3)ccc2c1: 1 to 10 µM
N#Cc1ccccc1N1CCN(c2cncc(-c3ccc(F)c(Cl)c3)n2)CC1: 1 to 10 µM
COc1ccccc1N1CCN(c2cncc(-c3ccc(F)cc3)n2)CC1: 1 to 10 µM
CCCNc1cncc(-c2ccc(C(N)=O)cc2)n1 [compound 25, 4-(6-Propylamino-pyrazin-2-yl)-benzamide]: < 1 µM

Let us move to another entry and its IC50.
Query: Record request: IC50 value, item CC(=O)c1ccc(N2CCN(c3cncc(-c4cccc5ccccc45)n3)CC2)cc1
Result: 10 to 100 µM

----------
# target-or-test-system: viral kinase pUL-97 (Human cytomegalovirus, UniProt P16788)
# Construct: The pUL-97 gene was cloned into a baculovirus vector; GST (glutathione S-transferase) (N); made in house; host or cells: Sf9 insect cells, baculovirus
# method-notes: UL97 kinase assay on Immobilon plate
# Format: biochemical
# measurement-setup: inhibition of UL 97 kinase activity; class by IC50 / % inhibition at 10 or 100 μM; read-out: Activity Class [A, B, C]
I'd appreciate it if you could supply IC50 values for the items below.

Sample records with IC50:
CSc1ccc(-c2cncc(N3CCN(c4ccc(C)cc4)CC3)n2)cc1: 1 to 10 µM
CCOc1ccc(-c2cncc(N3CCN(c4ccccc4OC)CC3)n2)cc1: 10 to 100 µM
c1ccc(-c2cncc(N3CCN(c4ccccc4)CC3)n2)cc1: 1 to 10 µM

// input: 2 molecules below; output: IC50 for each
1. NCc1ccc(-c2cncc(N3CCN(C(=O)c4ccco4)CC3)n2)cc1
2. COc1ccc(-c2cncc(NCCc3cccnc3)n2)cc1

Result:
["10 to 100 µM", "< 1 µM"]

// input: 2 molecules below; output: IC50 for each
1. c1ccc(N2CCN(c3cncc(-c4ccc5ccccc5c4)n3)CC2)cc1
2. CCOc1ccc(-c2cncc(N3CCN(c4ccccc4F)CC3)n2)cc1

Result:
1 to 10 µM
10 to 100 µM

// input: 2 molecules below; output: IC50 for each
1. COc1ccccc1N1CCN(c2cncc(-c3ccccc3C)n2)CC1
2. Clc1cccc(-c2cncc(N3CCN(c4ccccn4)CC3)n2)c1

Result:
1: 10 to 100 µM; 2: 1 to 10 µM
